Items are presented alongside their recorded combination Emax.
System: NCI-H1688 (Small Cell Lung Carcinoma)
PROCEDURE DETAILS: combination Emax (second highest fraction inhibited in the dose matrix, 72 h); higher = more inhibition; extreme values may be limits of the assay
Please reply with the number alone, leaving off any unit.

Field: example entries. Status: answers known.
{"COMPOUND": "C[C@@H](c1ccc2nccn2c1)n1nnc2ncc(-c3cnn(C)c3)nc21 [Savolitinib] + CN(CC[C@H](CSC1=CC=CC=C1)NC2=C(C=C(C=C2)S(=O)(=O)NC(=O)C3=CC=C(C=C3)N4CCC(CC4)[C@H](C5=CC=CC=C5C6=CC=C(C=C6)Cl)O)S(=O)(=O)C(F)(F)F)CCO [AZD4320] (first compound max 1 µM, 7x7, partner max 1 µM)", "READOUT NUMBER": 0.538}
{"COMPOUND": "CC1(C)CCC(CN2CCN(c3ccc(C(=O)NS(=O)(=O)c4ccc(NCC5CCOCC5)c([N+](=O)[O-])c4)c(Oc4cnc5[nH]ccc5c4)c3)CC2)=C(c2ccc(Cl)cc2)C1 [Venetoclax] + CN(C)CCCOc1ccc(-c2ccc3ncc4c(c3c2)n(C2CCOCC2)c(=O)n4C)cn1 [AZD0156] (first compound max 1 µM, 7x7, partner max 1 µM)", "READOUT NUMBER": 0.195}
{"COMPOUND": "CN(CCO)CC[C@H](CSc1ccccc1)Nc1ccc(S(=O)(=O)NC(=O)c2ccc(N3CCC([C@@H](O)c4ccccc4-c4ccc(Cl)cc4)CC3)cc2)cc1S(=O)(=O)C(F)(F)F [AZD4320] + C[C@@H]1COCCN1C2=NC(=NC(=C2)C3(CC3)[S@](=N)(=O)C)C4=C5C=CNC5=NC=C4 [AZD6738] (first compound max 1 µM, 7x7, partner max 10 µM)", "READOUT NUMBER": 0.728}

The compound listed as CCN(CCO)CCCOc1ccc2c(Nc3cc(CC(=O)Nc4cccc(F)c4)[nH]n3)ncnc2c1 [AZD2811] + C[C@@H]1COCCN1C2=NC(=NC(=C2)C3(CC3)[S@](=N)(=O)C)C4=C5C=CNC5=NC=C4 [AZD6738] (first compound max 1 µM, 7x7, partner max 10 µM) shows combination Emax equal to 0.271

Form field combination Emax, entry NC1(C(=O)N[C@@H](CCO)c2ccc(Cl)cc2)CCN(c2ncnc3[nH]ccc23)CC1 [Capivasertib] + CC(C)n1c(=O)n(C)c2cnc3cc(F)c(-c4ccc(OCCCN5CCCCC5)nc4)cc3c21 [AZD1390] (first compound max 10 µM, 7x7, partner max 0.3 µM) : 0.296

Noted for COc1nnc2ccc(N3CCC(c4ccc(OCCN5CCN(C)C(=O)[C@H]5C)cc4)CC3)nn12 [AZD5153] + CC1(C)CCC(CN2CCN(c3ccc(C(=O)NS(=O)(=O)c4ccc(NCC5CCOCC5)c([N+](=O)[O-])c4)c(Oc4cnc5[nH]ccc5c4)c3)CC2)=C(c2ccc(Cl)cc2)C1 [Venetoclax] (first compound max 1 µM, 7x7, partner max 1 µM) : its combination Emax reads 0.384

// combination Emax value for COc1nnc2ccc(N3CCC(c4ccc(OCCN5CCN(C)C(=O)[C@H]5C)cc4)CC3)nn12 [AZD5153] + Cc1c2c(nn1C)CSCc1cc(n(C)n1)CSc1cc(c3ccccc3c1)OCCCc1c(C(=O)O)n(C)c3c-2c(Cl)ccc13 [AZD5991] (first compound max 1 µM, 7x7, partner max 1 µM) : 0.647

Sure, the documented combination Emax for COc1nnc2ccc(N3CCC(c4ccc(OCCN5CCN(C)C(=O)[C@H]5C)cc4)CC3)nn12 [AZD5153] + CCN(CCO)CCCOc1ccc2c(Nc3cc(CC(=O)Nc4cccc(F)c4)[nH]n3)ncnc2c1 [AZD2811] (first compound max 1 µM, 7x7, partner max 1 µM) is 0.389

According to the records, this compound Cc1c2c(nn1C)CSCc1cc(n(C)n1)CSc1cc(c3ccccc3c1)OCCCc1c(C(=O)O)n(C)c3c-2c(Cl)ccc13 [AZD5991] + C1CN(CCC1(C(=O)N[C@@H](CCO)C2=CC=C(C=C2)Cl)N)C3=NC=NC4=C3C=CN4 [Capivasertib] (first compound max 1 µM, 7x7, partner max 3 µM) displays combination Emax of 0.322

Item: CN(CCO)CC[C@H](CSc1ccccc1)Nc1ccc(S(=O)(=O)NC(=O)c2ccc(N3CCC([C@@H](O)c4ccccc4-c4ccc(Cl)cc4)CC3)cc2)cc1S(=O)(=O)C(F)(F)F [AZD4320] + Cn1cnc2c(F)c(Nc3ccc(Br)cc3Cl)c(C(=O)NOCCO)cc21 [Selumetinib] (first compound max 1 µM, 7x7, partner max 3 µM) | combination Emax: 0.468

Noted for Cc1cc2ncnn2cc1Nc1ncc2c(n1)n(C1CCOCC1)c(=O)n2C [AZD7648] + C[C@@H]1COCCN1C2=NC(=NC(=C2)C3(CC3)[S@](=N)(=O)C)C4=C5C=CNC5=NC=C4 [AZD6738] (first compound max 10 µM, 7x7, partner max 10 µM) : its combination Emax reads 0.251

According to the records, this compound CN(C)CCCOc1ccc(-c2ccc3ncc4c(c3c2)n(C2CCOCC2)c(=O)n4C)cn1 [AZD0156] + C=CCn1c(=O)c2cnc(Nc3ccc(N4CCN(C)CC4)cc3)nc2n1-c1cccc(C(C)(C)O)n1 [AZD1775] (first compound max 1 µM, partner max 1 µM) displays combination Emax of 0.646

Notebook: Cc1nc(Nc2ncc(C(=O)Nc3c(C)cccc3Cl)s2)cc(N2CCN(CCO)CC2)n1 [Dasatinib] + CC(=O)Nc1cccc(-n2c(=O)n(C3CC3)c(=O)c3c(Nc4ccc(I)cc4F)n(C)c(=O)c(C)c32)c1 [Trametinib] (first compound max 2 µM, 7x7, partner max 1 µM) , combination Emax read as 0.249

Origin of measurements: the supplement of paper PMC11061612
